Target: Protein deacetylase HDAC6 (Homo sapiens, UniProt Q9UBN7)
Sequence (Q9UBN7 whole entry): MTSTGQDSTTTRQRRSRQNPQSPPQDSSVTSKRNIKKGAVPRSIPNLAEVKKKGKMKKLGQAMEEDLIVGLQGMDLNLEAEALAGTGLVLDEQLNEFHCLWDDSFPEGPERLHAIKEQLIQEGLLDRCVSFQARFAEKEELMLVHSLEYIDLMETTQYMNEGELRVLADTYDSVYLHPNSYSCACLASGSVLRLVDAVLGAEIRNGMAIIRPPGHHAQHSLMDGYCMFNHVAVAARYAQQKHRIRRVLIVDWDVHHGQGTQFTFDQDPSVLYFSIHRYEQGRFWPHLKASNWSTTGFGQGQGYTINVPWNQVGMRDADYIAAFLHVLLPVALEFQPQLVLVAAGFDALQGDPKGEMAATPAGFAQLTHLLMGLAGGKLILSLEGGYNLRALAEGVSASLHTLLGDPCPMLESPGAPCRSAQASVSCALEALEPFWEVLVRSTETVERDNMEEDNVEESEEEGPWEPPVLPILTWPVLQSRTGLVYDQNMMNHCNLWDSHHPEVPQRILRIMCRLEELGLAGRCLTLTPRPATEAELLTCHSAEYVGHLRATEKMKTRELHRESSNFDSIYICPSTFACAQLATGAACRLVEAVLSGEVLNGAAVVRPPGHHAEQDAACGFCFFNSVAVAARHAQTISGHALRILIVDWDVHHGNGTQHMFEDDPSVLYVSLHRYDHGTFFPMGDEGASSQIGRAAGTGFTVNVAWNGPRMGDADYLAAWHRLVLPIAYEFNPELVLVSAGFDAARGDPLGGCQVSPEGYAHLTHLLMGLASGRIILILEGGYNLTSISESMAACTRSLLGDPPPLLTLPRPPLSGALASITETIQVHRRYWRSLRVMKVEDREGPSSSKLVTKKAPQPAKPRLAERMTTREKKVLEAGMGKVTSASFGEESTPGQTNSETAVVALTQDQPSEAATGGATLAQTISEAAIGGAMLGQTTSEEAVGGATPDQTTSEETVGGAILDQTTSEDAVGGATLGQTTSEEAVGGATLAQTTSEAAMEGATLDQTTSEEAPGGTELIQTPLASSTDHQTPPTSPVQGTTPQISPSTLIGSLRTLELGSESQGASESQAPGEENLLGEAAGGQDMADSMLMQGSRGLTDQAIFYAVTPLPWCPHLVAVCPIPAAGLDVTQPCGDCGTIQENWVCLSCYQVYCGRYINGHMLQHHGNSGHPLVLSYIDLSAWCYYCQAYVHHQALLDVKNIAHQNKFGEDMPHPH
Assay: Inhibition of human KDAC6 expressed in baculovirus expression system at 30 uM using FITC-Histone 4 acetylated peptide as substrate after 60 mins by microfluidic assay
Conditions: 1 h, 30 µM
Property name: inhibition (INH)

Worked cases, inhibition (INH) given:
May I ask what inhibition (INH) has been recorded for "NS(=O)(=O)c1ccc(Nc2ccccc2)c([N+](=O)[O-])c1" ?
Not Active

What do you get for "O=C(OCC(O)COC(=O)c1cccnc1)c1cccnc1" ?
Not Active

What do you get for "CCOC(=O)c1[nH]c(C(=O)O)c(OC(=O)CC)c1C" ?
Not Active

What do you get for "NC(=O)c1ccccc1OCC(=O)Nc1ccc(Cl)c(Cl)c1" ?
Not Active

What do you get for "CC1=CC(C)(C)N=C(S)N1c1cccc2cc(S(=O)(=O)O)ccc12" ?
Not Active

What do you get for "Clc1ccc(Nc2nnc(-c3ccc4c(c3)OCO4)o2)cc1" ?
Not Active

---
May I ask what inhibition (INH) has been recorded for CC(C)NCC1CCc2cc(CO)c([N+](=O)[O-])cc2N1 (configuration not stated) [OXAMNIQUINE] ?
Not Active

What do you get for "Cc1c(COC(=O)N(C)C)c(COC(=O)NC(C)C)c2n1CS(=O)(=O)C2" ?
Not Active
